Origin of the recorded values: paper PMC7508583

Experiment: Plasma pharmacokinetics in mice
Type: in vivo, C57BL/6 female mice
Conditions: mouse, iv; 2 mg/kg i.v., plasma, C57BL/6 female mice; read-out: calculated half-life
measurement_type: half-life
Give the number first and the unit second.

For the compound CO[C@@H]1[C@H](OC(=O)Nc2ccc(C(=O)O)cc2)CC[C@]2(CO2)[C@H]1[C@@]1(C)O[C@@H]1CC=C(C)C , report half-life.
7.2 min

====

Tested on: G. lamblia WB trophozoites
Assay: Trophozoite growth inhibition, ATP content (ATPlite) assay
Format: cell-based
Conditions: Giardia duodenalis; trophozoite growth, 72 h, ATP content; read-out: Mean [IC50 ± SE(IC50)] G. lamblia WB
Provide the reported IC50 of each item.
Numbers only; they are read as nM.

Specify reported IC50 for the compound shown: COC1C(OC(=O)NC(=O)CN2CCN(C)CC2)CCC2(CO2)C1C1(C)OC1CC=C(C)C (centres unmarked)
22.3

Give the reported value of IC50 for this record: COC1C(OC(=O)Nc2ccccc2)CCC2(CO2)C1C1(C)OC1CC=C(C)C (centres unmarked)
3.7

Please give the documented IC50 of COC1C(OC(=O)NC(=O)CN(C)C)CCC2(CO2)C1C1(C)OC1CC=C(C)C (centres unmarked)
2

Quote IC50 reported for COC1C(OC(=O)NC(=O)CN2CCN(CCO)CC2)CCC2(CO2)C1C1(C)OC1CC=C(C)C (centres unmarked) please.
53.6

Give IC50 for COC1C(OC(=O)NC(=O)CN2CCOCC2)CCC2(CO2)C1C1(C)OC1CC=C(C)C (centres unmarked)
1.6

Supply reported IC50 belonging to this compound: Cc1ncc([N+](=O)[O-])n1CCO [Metronidazole, reference compound]
5570

Please supply the value of reported IC50 for the item COC1C(OC(=O)NC(=O)CN2CCC(O)CC2)CCC2(CO2)C1C1(C)OC1CC=C(C)C (centres unmarked)
6.8
